Sourced from PubChem BioAssay (NCI)

assay: NCI Yeast Anticancer Drug Screen. Data for the mec2-1 strain (AID 157); conditions: S. cerevisiae mec2-1 strain, at 50.0 µM, hits give high values
The panel holds about 79,000 compounds, 15% with a hit somewhere; the sample as a whole holds those more often. Activity calls are given as the source filed them. Rule as the data show it: active = growth inhibition above about 70%; inactive = the rest.
MEASURE_NAME: growth inhibition

Some molecules with recorded growth inhibition:
MOLECULE | growth inhibition
COC(=O)c1ncn(Cc2ccccc2)c1O (tested in a mixture with another compound) | -2.2% (inactive)
CC1CCCC(=O)CC1 (stereo not given) | 9.85% (inactive)
O=C1C(Cl)=C(NCCCN2CCN(CCCNC3=C(Cl)C(=O)c4ccccc4C3=O)CC2)C(=O)c2ccccc21 | 27.8% (inactive)

Req: // query growth inhibition value for entry "O=C1CC(=O)N(CCc2ccccc2)S(=O)(=O)N1CCc1ccccc1"
Resp: -21.4% (inactive)

Req: Find the recorded growth inhibition belonging to "CCCCNc1ccc([N+](=O)[O-])cc1[N+](=O)[O-]" and report it.
Resp: -15.4% (inactive)

Req: Sample "O=C(NC1c2ccccc2CCc2ccccc21)C(F)(F)F" — what was its growth inhibition?
Resp: -7.75% (inactive)

Req: Query: growth inhibition; subject: O=C(c1ccccc1)C(Br)C(Br)c1ccc([N+](=O)[O-])cc1 (stereo not given)
Resp: 39.9% (inactive)

Req: Which growth inhibition value belongs to "CC(C)(C)COc1ccc2c(c1)C1=NC2=NC2=NC(=NC3=NC(=NC4=NC(=N1)c1ccc(OCC(C)(C)C)cc14)c1ccc(OCC(C)(C)C)cc13)c1ccc(OCC(C)(C)C)cc12" ?
Resp: 1.1% (inactive)

Req: Any idea what growth inhibition was measured for "C=CN1C(=O)c2ccccc2C1=O" ?
Resp: -12.4% (inactive)

Req: Returns the measured growth inhibition for the input molecule. Input: "NC(=O)Cc1cc2c(cc1CO)OCO2"
Resp: 1.8% (inactive)
